Test system: L1210 leukemia ip in BDF1 mice, survival T/C
run-description: NCI In Vivo Anticancer Drug Screen. Data for tumor model L1210 Leukemia (intraperitoneal) in B6D2F1 (BDF1) mice
details: endpoint: mean survival time; dose: 400.0 mg/kg/injection; schedule: Q01DX001 (ip); vehicle: saline; higher = longer survival
Toxic doses and inconclusive results are not listed.
recorded-endpoint: T/C

>  <molecule>
COc1ccc(/C=C2\N=C(c3ccccc3)OC2=O)cc1OC

>  <T/C>
100 % of control

$$$$
>  <molecule>
CCCCNC(=O)n1ncc2cc(Cl)ccc21

>  <T/C>
94 % of control

$$$$
>  <molecule>
CCCCCCCCSP(=S)(N1CC1)N1CC1

>  <T/C>
96 % of control

$$$$
>  <molecule>
CCOC(=O)/C(=C/c1cccc2ccccc12)P(=O)(OCC)OCC

>  <T/C>
101 % of control

$$$$
>  <molecule>
O=[N+]([O-])c1ccc(NC(CO)C(O)C(O)C(O)CO)c([N+](=O)[O-])c1 (stereo not given)

>  <T/C>
98 % of control

$$$$
>  <molecule>
S=C(N/N=C/c1ccc2c(c1)OCO2)Nc1cccc2cccnc12

>  <T/C>
96 % of control

$$$$
>  <molecule>
CC(C)(C)C(Br)C(=O)Nc1ccccc1 (stereo not given)

>  <T/C>
102 % of control

$$$$
>  <molecule>
Cc1cn(C2OC(CO)C(O)C2O)c(=O)[nH]c1=O (stereo not given)

>  <T/C>
90 % of control

$$$$

# per-item lookup of T/C; items listed below
1. Cc1ccc(S(=O)(=O)NNC(=O)c2cc(C)c(C)cc2N)cc1
2. CCCCCCCCN1N=C(C)CCC1=O
3. Clc1ccccc1/C=N/N1CCN(/N=C/c2ccccc2Cl)CC1
4. COC(=O)CNC(=O)c1cccc([N+](=O)[O-])c1
5. CN(C)c1ccc(/C=N/NC(=S)Nc2cccc3cccnc23)cc1
6. O=S(=O)(/C(=C\c1ccccc1)c1ccccc1)c1ccccc1

Completion:
["95 % of control", "101 % of control", "101 % of control", "97 % of control", "96 % of control", "93 % of control"]
